Tested on: Caco-2 monolayer
protocol summary: Caco-2 monolayer transmembrane transport, apical to basolateral
Format: in vitro ADME, human
measurement conditions: No substrate; 40 µM flavonoid; 6 h; A to B; mean ± SD (n = 3)
Marks after values point to notes of the source that are not given here.
# PappAtoB annotations

| compound | PappAtoB |
| --- | --- |
| Oc1cc(O)c2c(c1)O[C@H](c1ccc(O)c(O)c1)[C@@H](O)C2 [(+)-Catechin] | 11.22 ± 0.06^a × 10^-6 cm/s |
| O=c1c(O)c(-c2ccc(O)cc2)oc2cc(O[C@@H]3O[C@H](CO)[C@@H](O)[C@H](O)[C@H]3O)cc(O)c12 [Kaempferol-7-O-β-glucoside] | 0.64 ± 0.05^a × 10^-6 cm/s |
| OC[C@H]1O[C@@H](Oc2cc3c(O)cc(O)cc3[o+]c2-c2ccc(O)c(O)c2)[C@H](O)[C@@H](O)[C@@H]1O [Cyanidin-3-O-glucoside] | 7.96 ± 0.08^a × 10^-6 cm/s |
| COc1cc(-c2oc3cc(O)cc(O)c3c(=O)c2O[C@@H]2O[C@H](CO[C@@H]3O[C@@H](C)[C@H](O)[C@@H](O)[C@H]3O)[C@@H](O)[C@H](O)[C@H]2O)ccc1O [Isorhamnetin-3-O-rutinoside] | 7.78 ± 0.05^b × 10^-6 cm/s |
